All values here come from PubChem BioAssay.

target: NADPH oxidase 2 (Homo sapiens); assay: NOX2-dependent H2O2 signal modulators, primary screen, NOX inhibitor project, cell-based, HEK293-NOX2, PMA-stimulated, Amplex Red fluorescence (AID 1159); conditions: 45 min, higher = more signal, called active from +8 up or from −8 down; note: test concentration not given here
We begin with a simple list: items and their reported z-score.
API note: the answer field is a bare number with no unit suffix.

Observe how each entry below is paired with its result.
C#CCNC(=O)[C@H](Cc1ccccc1)NC(=O)[C@@H](N=[N+]=[N-])C(C)C | 0.291
C=C(CCCC)/C(=C/C[C@@H](OC(C)=O)c1ccc(CO)o1)c1cc(C(=O)OC)ccc1OC | 0.615
COc1ccc(C(O)C2C=CC3C(=O)N(C)C(=O)C3N2N2CCCCC2)cc1 (stereo not drawn) | -0.378
CC[C@@H]1[C@H]2C3C(=O)N(CC)C(=O)C3CC(=O)[C@H]2[C@H](c2ccc(C)cc2)N1S(=O)(=O)c1ccc(C)cc1 (stereo partly drawn) | 0.5
[N-]=[N+]=Nc1ccccc1[C@H]1OC(c2ccc(OCCCO)cc2)=N[C@@]1(CCS(=O)(=O)c1ccccc1)C(=O)N1CCCCC1 | -1.34
O=C1OCC=C[C@H]2OC34C=CCN(c5ccc(Cl)cc5)C(=O)[C@H]3N(CCCCCO)C(=O)[C@@H]4[C@@H]12 (stereo partly drawn) | 1.95
C=CC1c2cc(O)c(OC)cc2CCN1Cc1sc2ccccc2c1Cl (stereo not drawn) | -4.21

API: the following record is the query input.
Query string: Identify the measured z-score of CC(C)(C)OC(=O)CC[C@]1(C(=O)N2CCOCC2)N=C(c2ccc(OCCCO)cc2)O[C@H]1c1ccccc1 for NADPH oxidase 2 (Homo sapiens).
Result string: -0.291

* * *

experiment: small-molecule microarray binders of probe aCHRDL2, primary screen, biochemical, biotinylated probe, 635/667 nm fluorescence (AID 1100); details: higher = more signal
quantity kind: composite z-score
Lab note: write the figure by itself, no unit.

CCCC[C@@H]1C[C@H]1[C@@H](NC(=O)c1cccnc1)c1ccc(-c2ccccc2)cc1 | 0.993
O=C(CS)NCCCCCCNC(=O)[C@@H]1C[C@@H]2C(=O)N3CCC[C@H]3C(=O)N2[C@@H]1c1cccc(OCCO)c1 | 0.396
COc1ccc(CCNC(=O)[C@@]2(Sc3ccc(C)cc3)CC(=O)N(Cc3cc(C(F)(F)F)cc(C(F)(F)F)c3)[C@@H]2c2ccc(CO)cc2I)cc1 | 0.901

Query string: For COC(=O)C1(Cc2ccccc2)C=C2C(=C(C(C)C)C(=O)C2C)CN1 (centres undefined) , what is its reported composite z-score?
Result string: 1.36

Query string: And for CN1C(=O)C2C=CC(C(O)c3c(F)cccc3Cl)N(Nc3ccccc3)C2C1=O (centres undefined) ?
Result string: 0.92

Query string: Now the same for CN(C)CCCNC(=O)[C@@]1(c2ccc([N+](=O)[O-])cc2)CC(=O)N(CC23CC4CC(CC(C4)C2)C3)[C@@H]1c1ccc(CO)cc1
Result string: 0.811

Query string: Another compound to check: CCC[C@@H]1C[C@@]1(CCC)[C@@H](NP(=O)(c1ccccc1)c1ccccc1)c1ccc(Cl)cc1
Result string: 0.292

Query string: Next: CCOC(=O)[C@H]1C/C=C/C[C@H](C(=O)OCC)C(=O)O[C@H]2[C@@H](OC)O[C@H](CO)[C@@H](OC(=O)CCc3ccccc3)[C@@H]2OC1=O
Result string: 0.128

Query string: Next compound: COC(=O)[C@@]1(Cc2ccccc2)[C@H]2c3cc(C(=O)N4CCCC4)n(Cc4ccsc4Br)c3C[C@H]2CN1C(=O)c1ccccc1
Result string: 1.37

Query string: Would you mind doing Cc1ccc(S[C@]2(C(=O)NCC(F)(F)F)CC(=O)N(Cc3ccccc3)[C@@H]2c2ccc(CO)cc2)cc1 as well?
Result string: 0.767

Query string: Try the compound O=C1OCCC=C[C@H]2OC34C=CCN(c5ccc(Cl)cc5)C(=O)[C@H]3N(CCCCCO)C(=O)[C@@H]4C12 (some centres undefined)
Result string: 0.255
